Test system: Radical scavenging activity
protocol notes: Antioxidant activity assessed as DPPH radical scavenging activity by densitometric analysis
Assay type: functional
quantity: IC50 (µM)

Study these solved cases before continuing.
>>> print(df.to_string())
                                   compound  quantity  reported_measurement
0           O=C1O[C@H]([C@@H](O)CO)C(O)=C1O      IC50                   7.7
1  COc1cc(C2Oc3cc([C@H]4Oc5cc(O)cc(O)c5C(=O)[C@@H]4O)ccc3OC2CO)ccc1O (mixture of isomers)      IC50                   284
2  COc1cc(C2Oc3cc(-c4oc5cc(OS(=O)(=O)O)cc(O)c5c(=O)c4O)ccc3OC2CO)ccc1O (mixture of isomers)      IC50                  99.7

[a] COc1cc(C2Oc3cc([C@H]4Oc5cc(OS(=O)(=O)O)cc(O)c5C(=O)[C@@H]4O)ccc3OC2CO)ccc1O (mixture of isomers)
[b] COc1cc(C2Oc3cc([C@H]4Oc5c(O)c(O)cc(O)c5C(=O)[C@@H]4O)ccc3OC2CO)ccc1O (mixture of isomers)
Quick one: lower IC50, a or b ? Reply with the label of the item you choose. b
